Tested on: Scedosporium apiospermum
MEASUREMENT_NOTES: Antimicrobial activity against Scedosporium apiospermum by broth microdilution method
Format: functional
*1 amine or outer side, *2 acyl side, *3 side chain or, on linkers, in order; H or OH if unused. Where a SMILES comes first, the peptide text is derived from it. Bridges are numbered along the chain shown (N, C = ends). [ ]: non-standard residue; d: D form. The star is where a group is joined. hTyr(3S-OH,4S-OH,3'-OSO3H) = N[C@H](C(=O)O)[C@H](O)[C@@H](O)c1ccc(O)c(OS(=O)(=O)O)c1; pTerphenylCO(4''-OnC5H11) = CCCCCOc1ccc(-c2ccc(-c3ccc(C(=O)*)cc3)cc2)cc1; Orn(4R-OH,5R-OH) = O=C([C@H](C[C@@H](O)[C@@H](O)N[*:3])N[*:1])[*:2]; hTyr(3S-OH,4S-OH) = N[C@H](C(=O)O)[C@H](O)[C@@H](O)c1ccc(O)cc1; Pro(3S-OH,4S-Me) = C[C@H]1CN[C@H](C(=O)O)[C@H]1O; X1 = CCCCCOc1ccc(-c2cc(-c3ccc(C(=O)*)cc3)no2)cc1; Gln(3R-OH) = NC(=O)C[C@@H](O)[C@H](N)C(=O)O; Hyp = O=C(O)[C@@H]1C[C@@H](O)CN1
MEASURED_ENDPOINT: MIC50 (µg/mL)

COMPOUND: CCCCCOc1ccc(-c2ccc(-c3ccc(C(=O)N[C@H]4C[C@@H](O)[C@@H](O)NC(=O)[C@@H]5[C@@H](O)[C@@H](C)CN5C(=O)[C@H]([C@@H](C)O)NC(=O)[C@H]([C@H](O)[C@@H](O)c5ccc(O)cc5)NC(=O)[C@@H]5C[C@@H](O)CN5C(=O)[C@H]([C@@H](C)O)NC4=O)cc3)cc2)cc1 [ANIDULAFUNGIN] ({pTerphenylCO(4''-OnC5H11)}-[Orn(4R-OH,5R-OH)]T[Hyp][hTyr(3S-OH,4S-OH)]T[Pro(3S-OH,4S-Me)]; lactam 1-C)
ASSAY_SYSTEM: Scedosporium apiospermum
MEASURED_ENDPOINT: MIC50
VALUE: 0.5

COMPOUND: CCC(C)n1ncn(-c2ccc(N3CCN(c4ccc(OCC5COC(Cn6cncn6)(c6ccc(Cl)cc6Cl)O5)cc4)CC3)cc2)c1=O (configuration not stated)
ASSAY_SYSTEM: Scedosporium apiospermum
MEASURED_ENDPOINT: MIC50
VALUE: 1

COMPOUND: CC[C@@H]([C@H](C)O)n1ncn(-c2ccc(N3CCN(c4ccc(OC[C@@H]5CO[C@@](Cn6cncn6)(c6ccc(F)cc6F)C5)cc4)CC3)cc2)c1=O
ASSAY_SYSTEM: Scedosporium apiospermum
MEASURED_ENDPOINT: MIC50
VALUE: 1

COMPOUND: C[C@@H]1[C@H](O)[C@@H](C)/C=C/C=C/C=C/C=C/C=C/C=C/C=C/[C@H](O[C@@H]2O[C@H](C)[C@@H](O)[C@H](N)[C@@H]2O)C[C@@H]2O[C@](O)(C[C@@H](O)C[C@@H](O)[C@H](O)CC[C@@H](O)C[C@@H](O)CC(=O)O[C@H]1C)C[C@H](O)[C@H]2C(=O)O
ASSAY_SYSTEM: Scedosporium apiospermum
MEASURED_ENDPOINT: MIC50
VALUE: 4

COMPOUND: C[C@@H](c1ncncc1F)[C@](O)(Cn1cncn1)c1ccc(F)cc1F
ASSAY_SYSTEM: Scedosporium apiospermum
MEASURED_ENDPOINT: MIC50
VALUE: 0.5

COMPOUND: CC[C@H](C)C[C@H](C)CCCCCCCCC(=O)N[C@H]1C[C@@H](O)[C@@H](NCCN)NC(=O)[C@@H]2[C@@H](O)CCN2C(=O)[C@H]([C@H](O)CCN)NC(=O)[C@H]([C@H](O)[C@@H](O)c2ccc(O)cc2)NC(=O)[C@@H]2C[C@@H](O)CN2C(=O)[C@H]([C@@H](C)O)NC1=O
ASSAY_SYSTEM: Scedosporium apiospermum
MEASURED_ENDPOINT: MIC50
VALUE: 2

COMPOUND: CCCCCOc1ccc(-c2cc(-c3ccc(C(=O)N[C@H]4C[C@@H](O)[C@@H](O)NC(=O)[C@@H]5[C@@H](O)[C@@H](C)CN5C(=O)[C@H]([C@H](O)CC(N)=O)NC(=O)[C@H]([C@H](O)[C@@H](O)c5ccc(O)c(OS(=O)(=O)O)c5)NC(=O)[C@@H]5C[C@@H](O)CN5C(=O)[C@H]([C@@H](C)O)NC4=O)cc3)no2)cc1 [MICAFUNGIN] (X1-[Orn(4R-OH,5R-OH)]T[Hyp][hTyr(3S-OH,4S-OH,3'-OSO3H)][Gln(3R-OH)][Pro(3S-OH,4S-Me)]; lactam 1-C)
ASSAY_SYSTEM: Scedosporium apiospermum
MEASURED_ENDPOINT: MIC50
VALUE: 0.03
